This listing pairs molecules with measured composite z-score.
Test system: Neuregulin-1 EGF-like domain
protocol description: binders of neuregulin-1 EGF-like domain, primary screen, biochemical, small-molecule microarray, 635 nm fluorescence (AID 1081);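 note: binding of the protein to compounds printed on small-molecule microarray slides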
condition info: small-molecule microarray binding, higher = more signal
parameter measured: composite z-score

molecule	value reported
COC(=O)[C@H](C)NC(=O)CCC1CC(OC(=O)NCc2cccc3ccccc23)CC2(CCCC(COC(=O)NCc3cccc(C(F)(F)F)c3)O2)O1 (stereo not given in full)	1.01
CC(=O)OC[C@H]1O[C@H](CC=NOC[C@@H](O)COCc2ccco2)C=C[C@@H]1OC(C)=O	0.717
CC(C)=NO[C@H](C)c1cn([C@@H]2COC[C@H]2O)nn1	0.305
CC(=O)OC[C@H]1O[C@H](CCON=C(C)C)C=C[C@@H]1OC(C)=O	-0.529
CC(C)=NOC[C@@H](O)[C@H]1O[C@@H]2OC(C)(C)O[C@@H]2[C@H]1O	0.457

----------
tgt: Follistatin-related protein 3 (Homo sapiens) (UniProt O95633)
Sequence (O95633 whole entry, looked up): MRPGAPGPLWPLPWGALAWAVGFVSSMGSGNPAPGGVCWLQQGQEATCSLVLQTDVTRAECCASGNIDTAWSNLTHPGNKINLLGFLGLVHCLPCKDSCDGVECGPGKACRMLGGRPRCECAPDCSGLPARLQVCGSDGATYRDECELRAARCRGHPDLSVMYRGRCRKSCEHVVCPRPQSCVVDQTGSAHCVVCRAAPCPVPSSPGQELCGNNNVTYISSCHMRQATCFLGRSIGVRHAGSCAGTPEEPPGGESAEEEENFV
protocol description: FSTL3 binders on small-molecule microarrays, primary screen, biochemical, small-molecule microarray, 635 nm fluorescence (AID 1105);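 note: score merges emission near 667 nm and signal to noise per printed spot across three slides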
condition info: FSTL3 binding, higher = more signal
If the reported composite z-score equals or exceeds 0.2, assign yes (1). If not, assign no (0).

compound	discrete label
COC(=O)[C@H](C)NC(=O)CCC1CC(OC(=O)NCc2cccc3ccccc23)CC2(CCCC(COC(=O)NCCCN3CCCC3=O)O2)O1 (stereo not given in full)	yes (1)
O=C1C=C[C@@H](O)[C@@H]2[C@@H]3C(=O)N(c4cccc(Oc5ccccc5)c4)C(=O)[C@@H]3CC[C@@H]12	yes (1)
CO[C@H]1COC(=O)CC=C[C@H](C)[C@H](OC)COC(=O)[C@@H](C)NC(=O)CC=C[C@@H]1C	yes (1)
CC(C)=CCCC(C)=CCON=C1C[C@@H](O)[C@@H](O)[C@@H]2[C@@H]3C(=O)N(Cc4ccc5c(c4)OCO5)C(=O)[C@@H]3CC[C@H]12	yes (1)
O=C1C2=CC[C@H]3C(=O)N(C4CCCCC4)C(=O)[C@H]3[C@H]2[C@H](O)[C@@H]2O[C@H]12	no (0)
CCOC(=O)CCN1C(=O)[C@H]2[C@H]3[C@H](O)[C@H](O)CC(=NO[C@@H]4O[C@H](CO)[C@@H](O)[C@H](O)[C@H]4O)[C@@H]3CC[C@H]2C1=O	yes (1)
CC(CCC(=O)OC[C@H]1O[C@H](C#Cc2ccccc2)C=C[C@@H]1Oc1ccc(C)cc1)=NOC(C)CN1CCCCc2nc(C)c(C)cc21 (stereo not given in full)	no (0)
CO[C@H]1COC(=O)[C@H](C)COC(=O)[C@H](C)NC(=O)CC=C[C@H]1C	yes (1)
C=CCOCC1CN2[C@@H](CC[C@@H](C)[C@@H]2c2ccc(Br)cc2)C(=O)O1 (stereo not given in full)	no (0)
COc1cccc([C@H]2Oc3ccc(OC)cc3C(=NO[C@@H](C)c3cc(-c4c(C)cc(C)cc4C)no3)[C@@H]2O)c1	no (0)
O=C1C[C@@H](O)[C@@H](O)[C@@H]2[C@@H]3C(=O)N(C4CCCCC4)C(=O)[C@@H]3CC[C@@H]12	yes (1)
C=CC[C@@H]1C=C[C@H](ON=CC[C@@H]2C=C[C@H](OC(C)=O)[C@@H](COC(C)=O)O2)[C@@H](CO)O1	yes (1)
CO[C@@H]1COC(=O)[C@@H]2CCCN2C(=O)[C@@H](C)COC(=O)CCC[C@H]1C	yes (1)
CC(CCN1CCc2nc(-c3ccccc3)c(-c3ccccc3)cc2C1)=NO[C@H](C)c1cn([C@H](CO)Cc2ccccc2)nn1	no (0)
CC(C)CON=C1C[C@@H](O)[C@@H](O)[C@@H]2[C@@H]3C(=O)N(Cc4ccc5c(c4)OCO5)C(=O)[C@@H]3CC[C@@H]12	no (0)

----------
protocol description: basal RPMI8226 viability, no added stimulus, profiling panel, cell-based, calcein-AM fluorescence, 48 h, PK04 Diversity Set (AID 1166);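 note: cells grown under basal conditions without added stimulus; test concentration not given here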
condition info: RPMI8226 myeloma viability, higher = more signal
Each record is given Condition met if its reported z-score is strictly below -0.1. Records at or above -0.1 are given Condition not met.

compound	discrete label
COC(=O)[C@H](C)NC(=O)CCC1CC(OC(=O)NCc2ccc3c(c2)OCO3)CC2(CCCC(COC(=O)NCc3ccccc3)O2)O1 (some centres not stated)	Condition not met
COc1ccc(COC(=O)NN=C2C[C@@H](O)[C@@H](O)[C@@H]3[C@@H]4C(=O)N(C[C@@H]5CCCO5)C(=O)[C@@H]4CC[C@H]23)cc1	Condition met
CCOC(=O)CCN1C(=O)[C@H]2[C@H]3[C@H](O)[C@H](O)CC(=O)[C@@H]3CC[C@H]2C1=O	Condition not met
CO[C@@H]1[C@H](O)CO[C@H]1C=Cc1ccccc1	Condition met
COC(OC)[C@@H](C)[C@H](OC)[C@@H](C)[C@H](OC)c1ccccc1	Condition not met
C=CC[C@@H]1C=C[C@H](Oc2ccc(C)cc2)[C@@H](COC(=O)NCc2cccc3ccccc23)O1	Condition met
C=CC[C@@H]1C=C[C@H](ON=C[C@@H](NS(=O)(=O)c2ccc(C)cc2)[C@H](C)C=CCC(=O)OC)[C@@H](CO)O1	Condition met
COc1ccc(COC(=O)NN=C2C[C@@H](O)[C@@H](O)[C@@H]3[C@@H]4C(=O)N(Cc5ccc6c(c5)OCO6)C(=O)[C@@H]4CC[C@H]23)cc1	Condition not met
C#CCCCON=C1C[C@@H](O)[C@@H](O)[C@@H]2[C@@H]3C(=O)N(C[C@@H]4CCCO4)C(=O)[C@@H]3CC[C@@H]12	Condition not met
C[C@@H]1CC[C@H]2C(=O)O[C@@H](CN=[N+]=[N-])CN2[C@H]1c1ccc(Br)cc1	Condition met
C=CC[C@@H]1C=CC(ON=C(C)C)[C@@H](CO)O1 (some centres not stated)	Condition met
CCC1=NOC(CCC2CC(OC(=O)NCc3cccc4c3OCO4)CC3(CCCC(COC(=O)NCCc4ccc(Cl)cc4)O3)O2)C1 (configuration not stated)	Condition met
COC(=O)[C@@H]1CC[C@H](C)[C@@H](c2ccc(Br)cc2)N1C[C@@H](O)CN=[N+]=[N-]	Condition met
CC=CC1=C(CO)[C@H](O)[C@H]2O[C@H]2[C@@H]1O	Condition met
CO[C@@H](C(C)C)[C@@H](C)C1OC(=O)CC1O (some centres not stated)	Condition met
CC(=O)OC[C@H]1O[C@H](C#CCC2CCCCC2)C=C[C@@H]1OC(C)=O	Condition met
CCOC(=O)CCN1C(=O)[C@H]2[C@@H]3C(=CC[C@H]2C1=O)C(=O)[C@H]1O[C@H]1[C@H]3O	Condition met

----------
protocol description: binders of probe aHhip on microarray, primary screen, stem cell growth factor project, biochemical, small-molecule microarray, fluorescence 635/667 (AID 1087);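 note: score merges spot fluorescence at 667nm with spot signal to noise ratio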
condition info: higher = more signal

compound	composite z-score
CC(C)=NOC[C@@H](O)[C@H]1O[C@@H]2OC(C)(C)O[C@@H]2[C@H]1O	-0.191
CCN1C(=O)[C@H]2[C@H]3[C@H](O)[C@H](O)CC(=NNC(=O)OCc4ccccc4)[C@@H]3CC[C@H]2C1=O	-0.249
O=C1CCCC=C1C(O)COCc1ccccc1 (centres undefined)	-0.194
COC(=O)[C@H](C)NC(=O)CCC1CC(OC(=O)NCc2cccc3ccccc23)CC2(CCCC(COC(=O)NCCC(C)C)O2)O1 (some centres undefined)	-0.264
C[C@@H]1CC[C@H]2C(=O)OC(CN3C(=O)c4ccccc4C3=O)CN2[C@H]1c1ccc(Br)cc1 (some centres undefined)	-0.132
C=CCOCC1CN2[C@@H](CC[C@@H](C)[C@@H]2c2ccc(Br)cc2)C(=O)O1 (some centres undefined)	-0.0994
CCN1C(=O)[C@H]2[C@H]3[C@H](O)[C@H](O)CC(=NNC(=O)OCc4ccccc4)[C@H]3CC[C@H]2C1=O	-0.13
COC(=O)[C@H](C)NC(=O)CCC1CC(OC(=O)NCc2cccc3ccccc23)CC2(CCCC(COC(=O)NCc3ccccc3)O2)O1 (some centres undefined)	-0.374
COC(=O)C(C(=O)OC)C1CCCC(=O)C1 (centres undefined)	-0.264

----------
protocol description: FRG1 promoter luciferase signal modulators, primary screen, FRG1 inhibition for FSHD, cell-based, C2C12 myotubes, firefly/Renilla luciferase, luminescence (AID 1084)
condition info: higher = more signal, called active from +8 up or from −8 down
Param threshold (0.3) applies to z-score; output Condition met when value >= threshold, Condition not met when value < threshold.

sample smiles	discrete label
COC(=O)[C@@H]1CC[C@H](C)[C@@H](c2ccc(Br)cc2)N1C[C@H](O)CN=[N+]=[N-]	Condition met
CCc1cc2c(nc1CC)CCN(CCC(C)=NOC[C@@H](C)[C@H](OCc1ccccc1)C(C)C)C2	Condition not met
COc1ccc(O[C@H]2C=C[C@@H](C#Cc3ccccc3)O[C@@H]2CO)cc1	Condition not met
C#CCCCON=C1C[C@@H](O)[C@@H](O)[C@@H]2[C@@H]3C(=O)N(C[C@@H]4CCCO4)C(=O)[C@@H]3CC[C@@H]12	Condition met
O=C(NN=C1C[C@@H](O)[C@@H](O)[C@@H]2[C@@H]3C(=O)N(Cc4ccc5c(c4)OCO5)C(=O)[C@@H]3CC[C@@H]12)OCc1ccccc1	Condition met
COCC#Cc1ccc([C@@H]2N[C@H](C(=O)O)CC[C@H]2C)cc1	Condition not met
O=C1C=C[C@@H](O)[C@@H]2[C@@H]3C(=O)N(C4CCCCC4)C(=O)[C@@H]3CC[C@@H]12	Condition not met
CC(C)CON=C1C[C@@H](O)[C@@H](O)[C@@H]2[C@@H]3C(=O)N(c4ccc(F)cc4F)C(=O)[C@@H]3CC[C@@H]12	Condition met
